- TEST SYSTEM: hCD3 (human CD3) (Homo sapiens, UniProt P07766)
- Sequence (P07766 23-126 limits assumed): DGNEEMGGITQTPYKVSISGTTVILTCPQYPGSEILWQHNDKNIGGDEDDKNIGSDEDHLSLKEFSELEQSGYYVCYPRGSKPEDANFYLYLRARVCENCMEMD
- Sequence (P04234 22-105 partner limits assumed): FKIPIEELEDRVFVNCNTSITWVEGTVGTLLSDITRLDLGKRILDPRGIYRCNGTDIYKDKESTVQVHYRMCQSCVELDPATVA
- TEST PROTOCOL: Kinetics and affinity of hCD3/human IgG interactions by SPR (Bio-Rad Proteon XPR36)
- Assay type: binding
- CONDITION CONTEXT: 37° C.
- Procedure: All experiments were performed on a Bio-Rad Proteon XPR36 surface Plasmon resonance biosensor (Bio-Rad, Hercules, Calif.). […] The analysis temperature for the hCD3 binding analysis was 37° C. or 25° C. in a running buffer of HBS-T+, supplemented with 1 mg/mL BSA. […] Immediately after the 50 nM hCD3 injection, dissociation was monitored for 2 hours. […]
MEASURE NAME: ka huCD3ed @37° C. (M⁻¹ s⁻¹)
A number alone suffices; assume M⁻¹ s⁻¹.

Read off the recorded ka huCD3ed @37° C. for h2B4-VH-yaps VL_TK: anti-CD3 antibody (antibody, V domains shown) VH: EVQLVESGGGLVQPGGSLRLSCAASGFTFSDYYMTWVRQAPGKGLEWVAFIRNRARGYTSDYAPSVKGRFTISRDNAKNSLYLQMNSLRAEDTAVYYCARDRPSYYVLDYWGQGTTVTVSS VL: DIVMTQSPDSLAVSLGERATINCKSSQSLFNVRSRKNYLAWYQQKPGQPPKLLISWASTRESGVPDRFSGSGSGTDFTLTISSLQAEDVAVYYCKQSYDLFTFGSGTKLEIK
250000
